Cited source: patent US20260297042A1

target: WEE1 (Homo sapiens); construct: purchased Thermo Fisher PR7373A; experiment: Selectivity versus WEE1 assay (ADP-Glo enzymatic assay); assay type: biochemical; settings: fold difference in selectivity for PKMYT1 over WEE1; banded; ">N" = at least in this band but could be higher
Assay Readout: PKMYT1 vs. WEE1 selectivity

- Cc1cn(-c2cnn(C)c2)nc1Nc1ncc(C(=O)Nc2c(C)ccc(O)c2C)s1 [BAA-385]: X (100-<1000 fold)
- Cc1ccc(O)c(C)c1NC(=O)c1cnc(Nc2cc(C(F)(F)F)nc(N3CCOCC3)n2)s1 [BAA-326]: X (100-<1000 fold)
- Cc1ccc(O)c(C)c1NC(=O)c1cnc(Nc2ncco2)s1 [BAA-027]: X (100-<1000 fold)

###

target: WEE1 (Homo sapiens, UniProt P30291); construct: purchased Thermo Fisher PR7373A; assay: Selectivity versus WEE1 assay (ADP-Glo enzymatic assay); format: biochemical; conditions: fold difference in selectivity for PKMYT1 over WEE1; banded; ">N" = at least in this band but could be higher
Sequence (P30291 whole entry): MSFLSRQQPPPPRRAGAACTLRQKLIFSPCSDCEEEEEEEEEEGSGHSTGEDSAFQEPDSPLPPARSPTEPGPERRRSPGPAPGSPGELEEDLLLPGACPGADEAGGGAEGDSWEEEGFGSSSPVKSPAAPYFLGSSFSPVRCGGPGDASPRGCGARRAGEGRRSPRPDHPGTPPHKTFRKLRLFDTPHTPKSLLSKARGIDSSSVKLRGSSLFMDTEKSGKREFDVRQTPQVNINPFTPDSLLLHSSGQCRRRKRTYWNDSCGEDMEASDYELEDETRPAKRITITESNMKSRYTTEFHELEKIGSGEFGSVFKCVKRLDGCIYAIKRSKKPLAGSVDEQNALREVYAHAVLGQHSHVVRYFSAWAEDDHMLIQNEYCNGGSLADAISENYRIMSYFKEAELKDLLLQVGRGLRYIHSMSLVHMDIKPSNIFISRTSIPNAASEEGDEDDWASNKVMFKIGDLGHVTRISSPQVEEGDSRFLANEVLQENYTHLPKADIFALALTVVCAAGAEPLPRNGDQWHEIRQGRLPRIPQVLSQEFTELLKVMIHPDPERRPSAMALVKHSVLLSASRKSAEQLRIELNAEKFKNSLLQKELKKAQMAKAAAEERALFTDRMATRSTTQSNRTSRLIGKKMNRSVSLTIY
Structures can show the parent of a compound that is named as a salt.
Assay Readout: PKMYT1 vs. WEE1 selectivity

• Cc1csc(Nc2ncc(C(=O)Nc3c(C)ccc(O)c3C)s2)n1 = X (100-<1000 fold)
• Cc1cn(C2COC2)nc1Nc1ncc(C(=O)Nc2c(C)ccc(O)c2C)s1 = W (10-<100 fold)
• Cc1cn(C2CNC2)nc1Nc1ncc(C(=O)Nc2c(C)ccc(O)c2C)s1 [BAA-273, hydrochloride] = W (10-<100 fold)
• Cc1ccc(O)c(C)c1NC(=O)c1cnc(Nc2ccn(CC(=O)N3C[C@@H](C)N[C@@H](C)C3)n2)s1 = X (100-<1000 fold)

###

// pIC50 lookup, one value per entry
biological target: WEE1 (Homo sapiens, UniProt P30291); construct: purchased Thermo Fisher PR7373A; experiment: Selectivity versus WEE1 assay (ADP-Glo enzymatic assay); format: biochemical; details: ADP-Glo; 15 nM WEE1, 60 minutes at 26° C.; banded
pIC50: −log10 of the molar value.

Worked cases, pIC50 given:
• Cc1cn(-c2cccnc2)nc1Nc1ncc(C(=O)Nc2c(C)ccc(O)c2C)s1 [BAA-371] = 4.96 to 6.00
• Cc1ccc(O)c(C)c1NC(=O)c1cnc(Nc2cc(C(F)(F)F)nc(OCC(F)(F)F)n2)s1 [BAA-318] = < 4.96
• Cc1ccc(O)c(C)c1NC(=O)c1cnc(Nc2ccn([C@@H]3CCN(C(=O)C4CCOCC4)C3)n2)s1 [BAA-082] = < 4.96
• Cc1ccc(O)c(C)c1NC(=O)c1cnc(Nc2ccc3cc(F)ccc3n2)s1 [BAA-288] = < 4.96
• Cc1ccc(O)c(C)c1NC(=O)c1cnc(Nc2cc(C(C)(C)C)nn2-c2ccccc2)s1 [BAA-359] = < 4.96

Now for a further compound.
Asked: What value of pIC50 has been recorded for this entry: Cc1cn(CC(F)(F)F)nc1Nc1ncc(C(=O)Nc2c(C)ccc(O)c2C)s1 [BAA-271]
Given back: < 4.96

###

molecular target: WEE1 (Homo sapiens); construct: purchased Thermo Fisher PR7373A; test: Selectivity versus WEE1 assay (ADP-Glo enzymatic assay); type: biochemical; details: fold difference in selectivity for PKMYT1 over WEE1; banded; ">N" = at least in this band but could be higher
Assay Readout: PKMYT1 vs. WEE1 selectivity

Below, 6 compounds whose answers are already recorded.
* Cc1ccc(O)c(C)c1NC(=O)c1cnc(N[C@H](C)c2ccccc2)s1 | W (10-<100 fold)
* Cc1ccc(O)c(C)c1NC(=O)c1cnc(Nc2ccn(CC(=O)OC(C)C)n2)s1 | X (100-<1000 fold)
* Cc1ccc(O)c(C)c1NC(=O)c1cnc(Nc2ccc(Nc3ccc(F)cc3)cn2)s1 | X (100-<1000 fold)
* COc1cc(-c2cccc(Nc3ncc(C(=O)Nc4c(C)ccc(O)c4C)s3)n2)cc(OC)c1OC | Y (1000-5000 fold)
* Cc1cc(Nc2ncc(C(=O)Nc3c(C)ccc(O)c3C)s2)n(C2CCCC2)n1 | Y (1000-5000 fold)
* Cc1ccc(O)c(C)c1NC(=O)c1cnc(Nc2nn(C)c(C)c2C)s1 | X (100-<1000 fold)

Asked: Value lookup for PKMYT1 vs. WEE1 selectivity; key = Cc1ccc(O)c(C)c1NC(=O)c1cnc(Nc2ccc(C(F)(F)F)cc2)s1
Given back: W (10-<100 fold)

Asked: Name the reported PKMYT1 vs. WEE1 selectivity value associated with the compound Cc1ccc(O)c(C)c1NC(=O)c1cnc(Nc2ccn(CC(=O)N3CCN(C(C)C)CC3)n2)s1
Given back: X (100-<1000 fold)

Asked: Consider the compound Cc1ccc(NS(=O)(=O)C(C)(C)C)nc1Nc1ncc(C(=O)Nc2c(C)ccc(O)c2C)s1.Cl and give its measured PKMYT1 vs. WEE1 selectivity.
Given back: Y (1000-5000 fold)

Asked: Requested field: PKMYT1 vs. WEE1 selectivity. Item: Cc1ccc(O)c(C)c1NC(=O)c1cnc(Nc2cc(Cl)nc(C(F)(F)F)n2)s1
Given back: Y (1000-5000 fold)

###

target: WEE1 (Homo sapiens, UniProt P30291); construct: purchased Thermo Fisher PR7373A; assay: Selectivity versus WEE1 assay (ADP-Glo enzymatic assay); format: biochemical; conditions: fold difference in selectivity for PKMYT1 over WEE1; banded; ">N" = at least in this band but could be higher
Where a name gives a salt, the structure may show the parent alone.
Assay Readout: PKMYT1 vs. WEE1 selectivity

- Cc1ccc(O)c(C)c1NC(=O)c1cnc(Nc2cc3ccc(O)cn3n2)s1 [BAA-343]: W (10-<100 fold)
- COCCOCCNC(=O)Cn1ccc(Nc2ncc(C(=O)Nc3c(C)ccc(O)c3C)s2)n1 [BAA-134]: Y (1000-5000 fold)
- Cc1ccc(O)c(C)c1NC(=O)c1cnc(Nc2ccn(CC(=O)NC3CCN(C(=O)OC(C)(C)C)CC3)n2)s1 [BAA-152]: X (100-<1000 fold)
- Cc1ccc(NC(=O)NC(C)(C)C)nc1Nc1ncc(C(=O)Nc2c(C)ccc(O)c2C)s1.Cl [BAA-336]: X (100-<1000 fold)
- CNC(=O)Cn1ccc(Nc2ncc(C(=O)Nc3c(C)ccc(O)c3C)s2)n1 [BAA-141]: X (100-<1000 fold)

Asked: Need PKMYT1 vs. WEE1 selectivity, item CCOC(=O)CCCn1ccc(Nc2ncc(C(=O)Nc3c(C)ccc(O)c3C)s2)n1 [BAA-022]
Given back: W (10-<100 fold)

Asked: Entry under review: CNc1ncc(C(=O)Nc2c(C)ccc(O)c2C)s1 [BAA-221] . Reported PKMYT1 vs. WEE1 selectivity?
Given back: X (100-<1000 fold)

Asked: Need PKMYT1 vs. WEE1 selectivity, item Cc1ccc(O)c(C)c1NC(=O)c1cnc(Nc2ccn(CC(=O)N3CCC(F)(F)C3)n2)s1 [BAA-176]
Given back: Y (1000-5000 fold)

Asked: Requested field: PKMYT1 vs. WEE1 selectivity. Item: CCOC(=O)Cn1ccc(Nc2ncc(C(=O)Nc3c(C)ccc(O)c3C)s2)n1 [BAA-023]
Given back: X (100-<1000 fold)

Asked: Return reported PKMYT1 vs. WEE1 selectivity; argument: Cc1ccc(O)c(C)c1NC(=O)c1cnc(Nc2ccn(CC(=O)NCC3CCN(C(=O)OC(C)(C)C)CC3)n2)s1 [BAA-157]
Given back: X (100-<1000 fold)

Asked: Request the reported PKMYT1 vs. WEE1 selectivity associated with COc1ccc(NC(=O)C(C)(C)C)nc1Nc1ncc(C(=O)Nc2c(C)ccc(O)c2C)s1.Cl [BAA-330]
Given back: Y (1000-5000 fold)

Asked: Entry under review: Cc1ccc(O)c(C)c1NC(=O)c1cnc(Nc2ccn(CC(=O)NC3CCOCC3)n2)s1 [BAA-195] . Reported PKMYT1 vs. WEE1 selectivity?
Given back: Y (1000-5000 fold)

Asked: Which measured PKMYT1 vs. WEE1 selectivity value corresponds to Cc1ccc(O)c(C)c1NC(=O)c1cnc(Nc2nn(C)cc2-c2ccccc2)s1 [BAA-373] ?
Given back: X (100-<1000 fold)

Asked: May I ask what PKMYT1 vs. WEE1 selectivity has been recorded for Cc1ccc(O)c(C)c1NC(=O)c1cnc(Nc2cccc(-c3cc(F)cc(F)c3)n2)s1 [BAA-315] ?
Given back: Y (1000-5000 fold)

Asked: // query PKMYT1 vs. WEE1 selectivity value for entry COc1ccc(CC(=O)N2CCC(CNc3ncc(C(=O)Nc4c(C)ccc(O)c4C)s3)CC2)nc1 [BAA-100]
Given back: >X (100-<1000 fold)

Asked: So what's the measured PKMYT1 vs. WEE1 selectivity for this one? Cc1ccc(O)c(C)c1NC(=O)c1cnc(Nc2ccn(CC(=O)O)n2)s1 [BAA-059]
Given back: X (100-<1000 fold)

Asked: Which PKMYT1 vs. WEE1 selectivity is listed for Cc1ccc(O)c(C)c1NC(=O)c1cnc(Nc2ccn([C@@H]3CCN(C(=O)Cc4ccncc4)C3)n2)s1 [BAA-104] ?
Given back: >X (100-<1000 fold)

Asked: I have this compound here, Cc1ccc(O)c(C)c1NC(=O)c1cnc(Nc2ccn(C3CCNCC3)n2)s1 [BAA-055, (hydrochloride)] , and I need its recorded PKMYT1 vs. WEE1 selectivity.
Given back: >X (100-<1000 fold)

Asked: Data request, read-out PKMYT1 vs. WEE1 selectivity, for Cc1cc(Nc2ncc(C(=O)Nc3c(C)ccc(O)c3C)s2)nc(NCCC(C)(C)C)n1 [BAA-338]
Given back: X (100-<1000 fold)

Asked: Bench note: what PKMYT1 vs. WEE1 selectivity did Cc1ccc(O)c(C)c1NC(=O)c1cnc(Nc2cc[nH]n2)s1 [BAA-003] show?
Given back: W (10-<100 fold)

Asked: For Cc1cn(C2CCC2)nc1Nc1ncc(C(=O)Nc2c(C)ccc(O)c2C)s1 [BAA-270] , what is its reported PKMYT1 vs. WEE1 selectivity?
Given back: X (100-<1000 fold)

Asked: Return reported PKMYT1 vs. WEE1 selectivity; argument: Cc1ccc(O)c(C)c1NC(=O)c1cnc(Nc2nn(C)c3c2CCC3)s1 [BAA-247]
Given back: Y (1000-5000 fold)
